- protocol-notes: Critical micellar concentration (CMC) by ANS fluorescence
- Format: physicochemical
- test-parameters: SO saponins, determined in PBS (Table A7)
# CMC per entry
# unit: µM | format: bare number

Here are 3 molecules together with their reported answers.
{"molecule": "CC(=O)OC1C(C)OC(OC2C(C)OC(OC(=O)[C@]34CCC(C)(C)CC3C3=CCC5[C@@]6(C)CC[C@H](OC7OC(C(=O)O)C(O)C(OC8OCC(O)C(O)C8O)C7OC7OC(CO)C(O)C(O)C7O)[C@@](C)(C=O)C6CC[C@@]5(C)[C@]3(C)C[C@H]4O)C(OC3OC(C)C(OC4OCC(O)C(OC5OC(CO)C(O)C(O)C5O)C4O)C(O)C3O)C2O)C(O)C1OC1OCC(O)C(O)C1O (some centres unmarked) [SO1861, reference compound]", "outcome-measure": "CMC", "test-value": 185}
{"molecule": "CC(=O)OC1C(C)OC(OC2C(C)OC(OC(=O)[C@]34CCC(C)(C)CC3C3=CCC5[C@@]6(C)CC[C@H](OC7OC(C(=O)NCCN8C(=O)C=CC8=O)C(O)C(OC8OCC(O)C(O)C8O)C7OC7OC(CO)C(O)C(O)C7O)[C@@](C)(C=O)C6CC[C@@]5(C)[C@]3(C)C[C@H]4O)C(OC3OC(C)C(OC4OCC(O)C(OC5OC(CO)C(O)C(O)C5O)C4O)C(O)C3O)C2O)C(O)C1OC1OCC(O)C(O)C1O (some centres unmarked) [SO1861-Glu-AEM]", "outcome-measure": "CMC", "test-value": 45}
{"molecule": "CC(=O)OC1C(C)OC(OC2C(C)OC(OC(=O)[C@]34CCC(C)(C)CC3C3=CCC5[C@@]6(C)CC[C@H](OC7OC(C(=O)NC(C)(CO)CO)C(O)C(OC8OCC(O)C(O)C8O)C7OC7OC(CO)C(O)C(O)C7O)[C@@](C)(CO)C6CC[C@@]5(C)[C@]3(C)C[C@H]4O)C(OC3OC(C)C(OC4OCC(O)C(OC5OC(CO)C(O)C(O)C5O)C4O)C(O)C3O)C2O)C(O)C1OC1OCC(O)C(O)C1O (some centres unmarked) [SO1861-(Ald-OH)-(Glu-AMPD)]", "outcome-measure": "CMC", "test-value": 50}

Next molecule, CMC to be filled in.
Which measured CMC value corresponds to CC(=O)OC1C(C)OC(OC2C(C)OC(OC(=O)[C@]34CCC(C)(C)CC3C3=CCC5[C@@]6(C)CC[C@H](OC7OC(C(=O)NCCN8C(=O)C=CC8=O)C(O)C(OC8OCC(O)C(O)C8O)C7OC7OC(CO)C(O)C(O)C7O)[C@@](C)(CO)C6CC[C@@]5(C)[C@]3(C)C[C@H]4O)C(OC3OC(C)C(OC4OCC(O)C(OC5OC(CO)C(O)C(O)C5O)C4O)C(O)C3O)C2O)C(O)C1OC1OCC(O)C(O)C1O (some centres unmarked) [SO1861-(Glu-AEM)-(Ald-OH)] ? 90
